Molecular target: Cannabinoid receptor 2 (Homo sapiens, UniProt P34972)
Sequence (P34972 whole entry): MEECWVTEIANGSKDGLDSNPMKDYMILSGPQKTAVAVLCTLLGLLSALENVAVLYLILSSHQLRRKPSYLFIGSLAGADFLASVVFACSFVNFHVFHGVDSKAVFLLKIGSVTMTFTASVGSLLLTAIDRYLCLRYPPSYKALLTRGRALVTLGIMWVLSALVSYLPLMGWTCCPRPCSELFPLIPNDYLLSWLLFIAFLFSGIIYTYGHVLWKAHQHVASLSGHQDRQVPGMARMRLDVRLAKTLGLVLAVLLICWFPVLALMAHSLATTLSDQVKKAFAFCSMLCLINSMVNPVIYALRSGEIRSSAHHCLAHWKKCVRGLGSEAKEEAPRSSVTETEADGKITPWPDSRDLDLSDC
Experiment: Agonist activity at human CB2 receptor expressed in CHO-K1 cells assessed as maximum efficacy incubated for 20 mins measured after 60 mins addition of cAMP detect reagent by HTRF analysis relative to control
Format: functional, cell-based
Conditions: filed as agonist, time 80.0 min
Observed property: Emax

Here is how some compounds turned out for Emax.
>>> endpoint_value("CC(C)(C)[C@@H](CO)NC(=O)c1nn(-c2cnccn2)c2c1C[C@H]1CCC2O1 (single isomer, unassigned)")
"111%"
>>> endpoint_value("CC(C)(C)[C@@H](CO)NC(=O)c1nn(-c2cnccn2)c2c1C[C@@H]1CC[C@H]2O1")
"< 50%"
>>> endpoint_value("CC(C)(C)NC(=O)c1c2c(nn1-c1ccc(F)cc1F)C1CCC(C2)O1 (centres undefined)")
"< 50%"
>>> endpoint_value("O=C(NC12CCC(CC1)CC2)c1nn(-c2c[n+]([O-])ccn2)c2c1CC1CCC2O1 (centres undefined)")
"96.5%"
>>> endpoint_value("O=C(NC1(C(F)(F)F)CCC1)c1nn(-c2cnccn2)c2c1CC1CCC2O1 (centres undefined)")
"90.3%"

Below is a list of compounds. For each, state its recorded Emax.
1. CC(C)(C)NC(=O)c1c2c(nn1-c1cnccn1)CC1CCC2O1 (centres undefined)
2. O=C(NC12CC(C1)C2)c1nn(-c2c[n+]([O-])ccn2)c2c1CC1CCC2O1 (centres undefined)
3. CCC(C)(C)c1noc(-c2nn(-c3cnccn3)c3c2CC2CCC3O2)n1 (centres undefined)
4. O=C(NC12CC3CC(CC1C3)C2)c1nn(-c2cnccn2)c2c1CC1CCC2O1 (centres undefined)

Result:
< 50%
91%
< 50%
111%

---

Molecular target: UniProtKB P34972
Experiment: Agonist activity at human CB2 receptor expressed in CHO-K1 cells assessed as […] incubated for 20 mins measured after 60 mins addition of cAMP detect reagent by HTRF analysis
Observed property: pEC50
Give bare numbers, as −log10 of the molar value.

Here is how some compounds turned out for pEC50.
>>> endpoint_value("CC(C)(C)c1nnc(-c2nn(-c3c[n+]([O-])ccn3)c3c2CC2CCC3O2)s1 (stereo not drawn)")
6.89
>>> endpoint_value("O=C(NC1(C(F)(F)F)CCC1)c1nn(-c2cnccn2)c2c1CC1CCC2O1 (stereo not drawn)")
6.24
>>> endpoint_value("CC(C)(C)NC(=O)c1nn(-c2ccc(F)cc2F)c2c1CC1CCC2O1 (stereo not drawn)")
6.97
>>> endpoint_value("O=C(NC12CC3CC(CC1C3)C2)c1nn(-c2ccc(F)cc2F)c2c1CC1CCC2O1 (stereo not drawn)")
9.15
>>> endpoint_value("O=C(NC12CC3CC(CC1C3)C2)c1nn(-c2cnccn2)c2c1CC1CCC2O1 (stereo not drawn)")
7.78
>>> endpoint_value("O=C(NC12CCC(CC1)CC2)c1nn(-c2c[n+]([O-])ccn2)c2c1CC1CCC2O1 (stereo not drawn)")
7.31

Below is a list of compounds. For each, state its recorded pEC50.
1. CC(C)(C)[C@@H](CO)NC(=O)c1nn(-c2cnccn2)c2c1C[C@H]1CCC2O1 (single isomer, unassigned)
2. O=C(NC12CC(C1)C2)c1nn(-c2c[n+]([O-])ccn2)c2c1CC1CCC2O1 (stereo not drawn)

Result:
[6.37, 5.75]
